Quick reference for log10 IC50 among some compounds
# Study System: APE1 (Homo sapiens)
# Construct: made in house
# Protocol: Fluorogenic kinetic qHTS APE1 incision assay (primary screen and retest of cherrypicked samples)
# Assay type: biochemical
# Condition Details: initial quantitative high-throughput screen; read-out: APE1 qHTS IC50
Scale: decimal log of IC50, IC50 in µM.

Example results:
{"columns": ["Compound", "Study System", "Readout", "Measured Result"],
 "data": [
  ["O=c1c(O)c(Br)ccc2c(Br)c(O)c(O)c(O)c12", "APE1 (Homo sapiens)", "log10 IC50", 0.04],
  ["O=C(CSc1nnc(Nc2ccccc2F)s1)NC(=O)CN1CCCC1=O", "APE1 (Homo sapiens)", "log10 IC50", 1.03],
  ["O=C(O)CCCN1C(=O)/C(=C/C=C/c2ccco2)SC1=S", "APE1 (Homo sapiens)", "log10 IC50", 1.55],
  ["O=C1CC(=O)N(Cc2ccco2)C(=O)N1", "APE1 (Homo sapiens)", "log10 IC50", 1.00],
  ["O=C(O)C[C@@H]1C(=O)O[C@@H]2C(COC(=O)c3cc(O)c(O)c(O)c3)O[C@@H](OC(=O)c3cc(O)c(O)c(O)c3)[C@@H](OC(=O)c3cc(O)c(O)c4c3[C@H]1[C@H](O)C(=O)O4)[C@H]2OC(=O)c1cc(O)c(O)c(O)c1 (some centres unmarked)", "APE1 (Homo sapiens)", "log10 IC50", -2.00],
  ["O=c1/c(=C/c2ccco2)sc2nc(-c3ccccc3Br)nn12", "APE1 (Homo sapiens)", "log10 IC50", 1.35]
]}

Item CC(=O)c1ccc(NC(=O)c2ccc3nc(-c4ccco4)c(-c4ccco4)nc3c2)cc1 with APE1 (Homo sapiens) - log10 IC50?
1.30

Item O=C(O)c1cccc(-c2ccc(/C=c3/sc4nc5ccccc5n4c3=O)o2)c1 with APE1 (Homo sapiens) - log10 IC50?
1.00

Item CCNc1nc(NCC)n2c(SCC(=O)Nc3cccc(F)c3)nnc2n1 with APE1 (Homo sapiens) - log10 IC50?
1.08

Item O=C(O)c1ccc(-c2ccc(/C=c3/sc4nc5ccccc5n4c3=O)o2)cc1Cl with APE1 (Homo sapiens) - log10 IC50?
0.98

Item O=C(O)c1ccc(N2C(=O)c3cccc4c(C(=O)O)ccc(c34)C2=O)cc1 with APE1 (Homo sapiens) - log10 IC50?
1.10

Item COc1ccc(NC(=O)CN(C)C(=O)c2cc3c(s2)CCC3)cc1 with APE1 (Homo sapiens) - log10 IC50?
0.28

Item NC(=O)c1ccc(NC(=O)COC(=O)c2cc3c(s2)CCC3)cc1 with APE1 (Homo sapiens) - log10 IC50?
0.48

Item O=C(O)c1cccc(-n2cccc2/C=C/[N+](=O)[O-])c1 with APE1 (Homo sapiens) - log10 IC50?
0.59

Item CCOC(=O)c1ccc2[nH]c(-c3ccc(S(=O)(=O)F)cc3)cc(=O)c2c1 with APE1 (Homo sapiens) - log10 IC50?
1.28

Item CC(=O)c1cccc(OCC(=O)N(C)CC(=O)NCc2ccco2)c1 with APE1 (Homo sapiens) - log10 IC50?
0.98

Item COc1cc(O)c2c(c1)oc(=O)c1c3cc(O)c(O)cc3oc21 with APE1 (Homo sapiens) - log10 IC50?
1.00

====

Quick reference for IC50 among some compounds
# Study System: APE1 (Homo sapiens, UniProt P27695)
# Construct: made in house
# Sequence (P27695 whole entry): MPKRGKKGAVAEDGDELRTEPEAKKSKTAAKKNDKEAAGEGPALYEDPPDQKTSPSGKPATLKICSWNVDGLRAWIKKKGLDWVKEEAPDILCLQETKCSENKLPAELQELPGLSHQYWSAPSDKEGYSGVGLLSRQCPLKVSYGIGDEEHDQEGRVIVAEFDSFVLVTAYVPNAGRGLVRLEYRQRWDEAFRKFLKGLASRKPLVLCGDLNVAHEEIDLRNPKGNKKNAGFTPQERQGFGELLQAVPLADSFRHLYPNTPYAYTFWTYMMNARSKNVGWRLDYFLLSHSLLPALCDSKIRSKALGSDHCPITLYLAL
# Protocol: Fluorescence polarization (FP) displacement assay of APE1 binding to AP-DNA probe;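 also: TAMRA 5′-labeled duplex DNA with THF abasic site (5 nM) and APE1 (20 nM), Mg2+-free buffer, 15 min at room temperature, inhibition seen as lowered polarization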
# Condition Details: read-out: FP IC50

{"columns": ["Compound", "IC50"],
 "data": [
  ["COCCN(CC(=O)Nc1cccc(C)c1C)C(=O)c1cc2c(s1)CCC2 [MLS002170765]", "> 57 µM"],
  ["Cc1ccc(NC(=O)CN(C)C(=O)c2cc(-c3ccco3)nc3ccccc23)cc1 [MLS001099510]", "> 57 µM"]
]}

Record request: IC50 value, item CCOC(=O)C1=C(C)N=c2s/c(=C\c3ccc(OCC(=O)O)cc3)c(=O)n2C1c1ccc(Cl)cc1 (centres unmarked) [MLS001178472]
> 57 µM

Record request: IC50 value, item CC(=O)c1ccccc1NS(=O)(=O)c1cccc2nsnc12 [MLS001008046]
28.9 µM

Record request: IC50 value, item O=C(O)c1ccc(-n2cccc2/C=C2/NC(=O)N(c3ccccc3)C2=O)cc1 [MLS000778414]
12.6 µM

====

# Study System: APE1 (Homo sapiens)
# Construct: made in house
# Protocol: Fluorogenic kinetic qHTS APE1 incision assay (primary screen and retest of cherrypicked samples)
# Type: biochemical
# Condition Details: retest of cherrypicked sample; read-out: APE1 Retest IC50
Decision: IC50 beneath 6 µM gives 1.0; IC50 meeting or exceeding 6 µM gives 0.0.

{"columns": ["Smiles Structure", "Study System", "Qualitative Label"],
 "data": [
  ["Cc1cc(C=O)c(C)n1-c1ccc(Cl)c(C(=O)O)c1", "APE1 (Homo sapiens)", 0.0],
  ["COc1cc(/C=N/Nc2ccc(C(=O)O)cc2)ccc1O", "APE1 (Homo sapiens)", 0.0],
  ["COc1ccc(NC(=O)COC(=O)c2cc3c(s2)CCC3)cc1", "APE1 (Homo sapiens)", 0.0],
  ["O=C(O)c1cccc(-n2cccc2/C=C/[N+](=O)[O-])c1", "APE1 (Homo sapiens)", 1.0],
  ["CCCN(C(=O)c1cccc(-n2cccc2)c1)c1c(N)n(Cc2ccccc2)c(=O)[nH]c1=O", "APE1 (Homo sapiens)", 0.0],
  ["O=C(O)c1ccccc1-c1ccc(/C=c2\\sc3nc4cc(Br)cnc4n3c2=O)o1", "APE1 (Homo sapiens)", 0.0]
]}

Regarding O=C1/C(=C/C=C/c2ccco2)SC(=S)N1NS(=O)(=O)c1ccccc1 , kindly confirm whether its IC50 is beneath 6 µM.
1.0

Regarding Cc1ccc(NC(=O)CN2C(=O)S/C(=C/c3ccc(-c4cc(C(=O)O)ccc4C)o3)C2=O)cc1C , kindly confirm whether its IC50 is beneath 6 µM.
0.0

Regarding Cc1ccc(C)c(NC(=O)CN(C)C(=O)c2cccc(-n3cccc3)c2)c1 , kindly confirm whether its IC50 is beneath 6 µM.
1.0

====

# Study System: APE1 (Homo sapiens)
# Construct: made in house
# Protocol: Fluorogenic kinetic qHTS APE1 incision assay (primary screen and retest of cherrypicked samples);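 also: purified APE1 cleaving a fluorophore/dark-quencher labelled 17-mer duplex DNA bearing a tetrahydrofuran AP site, fluorescence rise followed kinetically over the first 2 min, inhibition normalized to controls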
# Type: biochemical
# Condition Details: initial quantitative high-throughput screen; read-out: APE1 qHTS IC50
Readout: IC50 (µM)
Respond with the bare value in µM.

Example results:
{"columns": ["Compound", "Readout", "Measured Result"],
 "data": [
  ["O=c1oc2c(cc1O)oc(=O)c1cc(O)c(O)c(O)c12", "IC50", 0.4],
  ["O=C(O)c1ccccc1-c1ccc(/C=c2\\sc3nc4cc(Br)cnc4n3c2=O)o1", "IC50", 22.4]
]}

Record request: IC50 value, item O=C(CSc1nc(-c2ccc(F)cc2)nc2c1Cc1ccccc1O2)Nc1ccc(C(=O)O)cc1
12.6

Record request: IC50 value, item Oc1cc(O)c2c(c1)OC(c1ccc(O)c(O)c1)C(O)C2 (stereo not shown)
3.2

Record request: IC50 value, item Cc1cccc(N2NC(=O)/C(=C/c3ccc(-c4ccc(Cl)c(C(=O)O)c4)o3)C2=O)c1
17.8

Record request: IC50 value, item O=C(O)c1ccc(-n2cccc2/C=C2/NC(=O)N(c3cccc(Cl)c3)C2=O)cc1
2.8

====

# Study System: double-stranded 17-mer DNA fragment
# Protocol: ThO (Thiazole Orange) DNA displacement assay;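 also: miniaturized displacement of the intercalating dye from unlabeled duplex DNA, used to flag nonspecific DNA binders, chiefly intercalators, groove binders may be missed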
# Assay type: binding
# Condition Details: read-out: ThO-DNA binding IC50
pIC50: −log10 of the molar value.
Readout: pIC50

{"columns": ["Molecule", "Measured Result"],
 "data": [
  ["CC1CCN(C2=NN3C(=N)/C(=C\\c4ccc(OC(=O)c5ccco5)cc4)C(=O)N=C3S2)CC1", "< 4.24"],
  ["Nc1nc(=S)c2ncn(C3OC(CO)C(O)C3O)c2[nH]1 (centres unmarked)", 4.54],
  ["Cc1ccc2c(=O)c3ccccc3n(CCCN)c2c1C", 4.85],
  ["CCOC(=O)c1cc(-c2ccc(N3CCOCC3)cc2)nn1-c1ccccc1C(=O)O", "< 4.24"],
  ["O=c1oc2c(O)c(O)cc3c(=O)oc4c(O)c(O)cc1c4c23", 7.00]
]}

Record request: pIC50 value, item C=CC1=C(C(=O)O)N2C(=O)[C@@H](NC(=O)/C(=N\OCC(=O)O)c3csc(N)n3)[C@H]2SC1
< 4.24

Record request: pIC50 value, item CCn1c(SCC(=O)O)nc2sc3c(c2c1=O)CCC3
< 4.24

Record request: pIC50 value, item O=C(O)c1ccc(-n2cccc2/C=C2/NC(=O)N(c3ccccc3)C2=O)cc1
< 4.24

Origin of the recorded values: paper PMC3479139
